Each entry below carries its reported EC50.
Biological target: hM5 (human Muscarinic receptor subtype 5) (Homo sapiens, UniProt P08912)
Construct: expressed in transfected cells; host or cells: CHO cells (Chinese hamster ovary cells, ATCC)
Sequence (P08912 1-532): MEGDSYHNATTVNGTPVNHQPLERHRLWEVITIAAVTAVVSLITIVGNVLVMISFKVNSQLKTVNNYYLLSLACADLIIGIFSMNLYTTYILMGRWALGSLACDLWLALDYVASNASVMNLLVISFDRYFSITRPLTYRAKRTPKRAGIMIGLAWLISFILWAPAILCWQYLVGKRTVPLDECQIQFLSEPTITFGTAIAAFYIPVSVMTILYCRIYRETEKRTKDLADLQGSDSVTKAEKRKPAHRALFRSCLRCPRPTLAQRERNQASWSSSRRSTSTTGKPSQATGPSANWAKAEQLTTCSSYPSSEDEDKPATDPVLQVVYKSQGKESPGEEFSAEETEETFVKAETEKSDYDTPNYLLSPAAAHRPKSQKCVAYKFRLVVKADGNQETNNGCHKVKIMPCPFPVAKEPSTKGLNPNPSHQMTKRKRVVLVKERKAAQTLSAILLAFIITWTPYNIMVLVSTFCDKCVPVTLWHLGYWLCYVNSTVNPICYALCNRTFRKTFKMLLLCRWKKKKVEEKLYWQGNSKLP
Test: Human M5 calcium mobilization FLIPR assay
Type: cell-based
Details: hM5 expressed in CHO cells, intracellular Ca2+ release, read-out: hM5 EC50

Reference set (4 entries):
COMPOUND: CC1(N2CCC(n3c(=O)[nH]c4ccccc43)CC2)CCN(C(=O)OCCF)C1 (racemic)
EC50: > 9.6 µM
//
COMPOUND: CCOC(=O)N1CCC(C)(N2CCC(n3c(=O)[nH]c4ccc(F)cc43)CC2)C1 (single isomer, unassigned) [Example 49]
EC50: > 6.21 µM
//
COMPOUND: CCOC(=O)N1CCC(C)(N2CCC(N3C(=O)Cc4ccccc43)CC2)C1 (single isomer, unassigned) [Example 73]
EC50: > 40 µM
//
COMPOUND: CC1(N2CCC(n3c(=O)[nH]c4ccc(F)cc43)CC2)CCN(C(=O)OCCF)C1 (single isomer, unassigned)
EC50: > 6.16 µM

## Input I am curious: what EC50 value has been reported for CC1(N2CCC(n3c(=O)[nH]c4cc(F)c(F)cc43)CC2)CCN(C(=O)OCCF)C1 (single isomer, unassigned) ?
## Output > 2.71 µM

## Input Report EC50 for COC(=O)N1CCC(C)(N2CCC(n3c(=O)[nH]c4cc(C)ccc43)CC2)C1 (single isomer, unassigned) please.
## Output > 40 µM
